Data credit: patent US20110318757A1

kon for assorted binders
Target: T1, MUC1 peptide (15 aa+cystein, APDTRPAPGSTAPPAC) (human)
T1 construct: If the listing entry has only 15 residues, a C-terminal Cys must be added; Immobilized on the SPR chip; also called synthetic MUC1 peptide
T1 peptide: APDTRPAPGSTAPPAC
Test: SPR, scFv 2-200 nM over immobilized MUC1 peptide, Chip 1 (47 RU)
Just the number in M⁻¹ s⁻¹, nothing appended.

HT186-B7 scFv (scFv, scFv as VH-truncated CH1-linker-VL-truncated CL, made in the E. coli periplasm and purified by its His-tag; not shown: C-terminal His-tag used for purification and detection) scFv: QMQLVQSGAEVKKPGASVKVSCKASGYTFTGHYMHWVRQAPGQGLEWMGWIDPVTGGTKYAQNFQGWVTMTRDTSIRTAYMELSRLRSDDTAMYYCAREVTGDRGQFDKWGQGTLVTVASASTKGPSVKLEEGEFSEARVQSVLTQPPSVSVAPGKTARITCGGNNIGSKSVHWYQQKPGQAPALVIYYGSYRPSGIPERFSGSNYGNTATLTIRRVEAGDEADYYCQVWDSSSDWVFGGGTKLTVLGQPKAAPSVTLFPPS    35000

--- query ---
Prompt line: May I ask what kon has been recorded for HT220-M-G8 scFv (scFv, scFv as VH-truncated CH1-linker-VL-truncated CL, made in the E. coli periplasm and purified by its His-tag; not shown: C-terminal His-tag used for purification and detection) scFv: QMQLVQSGAEVMKPGASVKVSCKASGYSFTGHYMHWVRHAPGQGLEWMGWIDPVTGSTKYAQNFQGWVTMTRDTSISTAYMELSRLRSDDTAMYYCAREVTGDRGQFDKWGQGTLVTVASASTKGPSVKLEEGEFSEARVQSVLTQPPSVSVAPGKTARITCGGNNIGSKSVHWYQQKPGQAPVLVIYYGSDRPSGIPERFSGSNTGNMATLTISRVEAGDEADYYCQVWDSSSDWVFGGGTKLTVLGQPKAAPSVTLFPPS ?
Response line: 50000
